Every entry's value here was drawn from patent US9346798B2.

IC50 for assorted molecules
- target.under.test: Nav 1.7 (Homo sapiens (Human), UniProt Q15858)
- Sequence (Q15858 whole entry): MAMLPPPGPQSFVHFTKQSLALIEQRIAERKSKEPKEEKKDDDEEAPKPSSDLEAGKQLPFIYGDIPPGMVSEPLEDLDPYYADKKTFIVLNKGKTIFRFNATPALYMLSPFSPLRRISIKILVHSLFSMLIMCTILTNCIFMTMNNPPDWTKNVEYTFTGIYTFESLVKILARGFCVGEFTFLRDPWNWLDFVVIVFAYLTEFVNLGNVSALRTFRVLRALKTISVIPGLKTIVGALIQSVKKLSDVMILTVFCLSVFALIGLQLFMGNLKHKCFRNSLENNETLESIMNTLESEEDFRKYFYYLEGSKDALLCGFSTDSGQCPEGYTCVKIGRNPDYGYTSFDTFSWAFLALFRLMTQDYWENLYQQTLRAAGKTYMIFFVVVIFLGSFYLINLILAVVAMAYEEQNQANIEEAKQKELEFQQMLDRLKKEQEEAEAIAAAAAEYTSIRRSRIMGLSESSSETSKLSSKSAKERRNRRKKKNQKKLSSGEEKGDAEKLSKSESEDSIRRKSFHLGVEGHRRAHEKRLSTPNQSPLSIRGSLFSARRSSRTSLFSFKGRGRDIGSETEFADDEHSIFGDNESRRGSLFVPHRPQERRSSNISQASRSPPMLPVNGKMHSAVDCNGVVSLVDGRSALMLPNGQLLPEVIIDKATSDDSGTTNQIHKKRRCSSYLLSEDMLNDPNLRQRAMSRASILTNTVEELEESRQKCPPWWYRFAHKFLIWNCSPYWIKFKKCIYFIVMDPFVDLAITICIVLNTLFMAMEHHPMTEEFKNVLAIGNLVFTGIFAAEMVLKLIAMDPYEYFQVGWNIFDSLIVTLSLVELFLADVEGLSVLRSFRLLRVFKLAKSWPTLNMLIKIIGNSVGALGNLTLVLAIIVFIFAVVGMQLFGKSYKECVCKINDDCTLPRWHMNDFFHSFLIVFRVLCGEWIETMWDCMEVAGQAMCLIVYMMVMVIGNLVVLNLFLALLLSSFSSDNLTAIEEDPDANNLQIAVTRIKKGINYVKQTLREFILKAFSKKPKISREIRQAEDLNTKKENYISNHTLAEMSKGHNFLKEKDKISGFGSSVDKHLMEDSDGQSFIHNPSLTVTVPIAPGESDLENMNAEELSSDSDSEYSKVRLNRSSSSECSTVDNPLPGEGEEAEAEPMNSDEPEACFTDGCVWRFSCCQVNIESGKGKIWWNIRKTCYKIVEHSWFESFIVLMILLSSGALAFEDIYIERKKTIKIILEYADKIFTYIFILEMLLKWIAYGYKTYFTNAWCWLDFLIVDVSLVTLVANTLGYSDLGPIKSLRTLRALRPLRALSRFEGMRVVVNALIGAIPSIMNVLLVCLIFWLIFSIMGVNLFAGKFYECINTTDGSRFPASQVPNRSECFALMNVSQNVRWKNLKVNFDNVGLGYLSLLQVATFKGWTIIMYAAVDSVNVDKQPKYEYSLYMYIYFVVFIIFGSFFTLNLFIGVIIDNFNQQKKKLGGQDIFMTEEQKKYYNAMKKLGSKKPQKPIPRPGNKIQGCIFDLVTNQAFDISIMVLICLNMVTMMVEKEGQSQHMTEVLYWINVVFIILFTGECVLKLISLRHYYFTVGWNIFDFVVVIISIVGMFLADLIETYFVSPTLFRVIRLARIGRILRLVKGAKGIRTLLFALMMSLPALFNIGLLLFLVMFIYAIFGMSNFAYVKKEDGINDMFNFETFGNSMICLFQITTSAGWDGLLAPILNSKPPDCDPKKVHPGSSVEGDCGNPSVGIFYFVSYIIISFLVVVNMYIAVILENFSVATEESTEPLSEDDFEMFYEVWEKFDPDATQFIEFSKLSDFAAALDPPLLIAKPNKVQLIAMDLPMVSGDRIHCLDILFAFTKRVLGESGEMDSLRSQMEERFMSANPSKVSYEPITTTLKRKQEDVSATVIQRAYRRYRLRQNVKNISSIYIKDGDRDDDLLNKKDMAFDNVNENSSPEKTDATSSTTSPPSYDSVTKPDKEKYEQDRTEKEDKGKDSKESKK
- method.description: Nav 1.7 in vitro PX assay, PatchXpress whole cell voltage clamp
- Type: cell-based
- condition.set: HEK 293 cells stably transfected with human Nav1.7; partially inactivated state (20 to 50% inactivation)
value.type: IC50

| molecule | target.under.test | assay.result |
| --- | --- | --- |
| CN1CC=C(c2cc(C(F)(F)F)ccc2N2CCOc3cc(S(=O)(=O)Nc4nccs4)ccc32)CC1 [Example 44] | Nav 1.7 (Homo sapiens (Human), UniProt Q15858) | 68.7 nM |
| O=S(=O)(Nc1ncns1)c1ccc2c(c1)OCCN2c1ccc(C(F)(F)F)cc1C1=CCNCC1 [Example 7] | Nav 1.7 (Homo sapiens (Human), UniProt Q15858) | 23.7 nM |
| O=S(=O)(Nc1ccccn1)c1ccc2c(c1)OCCN2c1ccc(C(F)(F)F)cc1C1=CCNCC1 [Example 62] | Nav 1.7 (Homo sapiens (Human), UniProt Q15858) | 282 nM |
| COc1cc(Cl)ccc1N1C[C@H](C)Oc2cc(S(=O)(=O)Nc3nccs3)ccc21 (single isomer, unassigned) [Example 104] | Nav 1.7 (Homo sapiens (Human), UniProt Q15858) | 657 nM |
| COc1ccc(C)nc1N1CCOc2cc(S(=O)(=O)Nc3nccs3)ccc21 [Example 109] | Nav 1.7 (Homo sapiens (Human), UniProt Q15858) | 1980 nM |
| Cn1nccc1-c1ccccc1N1CCOc2cc(S(=O)(=O)Nc3nccs3)ccc21 [Example 148] | Nav 1.7 (Homo sapiens (Human), UniProt Q15858) | 782 nM |
| Nc1cc(-c2cc(C(F)(F)F)ccc2N2CCOc3cc(S(=O)(=O)Nc4ncns4)ccc32)ccn1 [Example 29] | Nav 1.7 (Homo sapiens (Human), UniProt Q15858) | 79 nM |
| COc1cc(C(F)(F)F)ccc1N1C(=O)[C@H](C)Oc2cc(S(=O)(=O)Nc3nccs3)ccc21 [Example 264] | Nav 1.7 (Homo sapiens (Human), UniProt Q15858) | 596 nM |
